- Tested on: NCI/ADR-RES ovarian
- protocol.details: NCI-60 one-dose screen, 48 h
- test.parameters: 10 µM unless noted
This is part of a sample that, as a whole, favours compounds with a hit. Of some 83,000 tested, about 20% had one in any assay. Active and inactive are the calls of the source. Rule for the calls: active = growth percent below 10; inactive = the rest.
Write down one outcome, taken from 1 for active, 0 for inactive

See these solved cases before continuing.
[
  {
    "compound": "O=S(=O)(Nc1ccsc1-c1nc(-c2ccccc2)no1)c1cc(Cl)cc(Cl)c1",
    "group.label": 0
  },
  {
    "compound": "O=C(NCCOCCOCCNc1cccc2c1C(=O)N(C1CCCNC1=O)C2=O)c1cc2c(o1)C(=O)c1ccccc1C2=O (stereo not drawn)",
    "group.label": 0
  },
  {
    "compound": "COc1cc(-c2cccc([N+](=O)[O-])c2)c(-c2nc(-c3ccccc3)c(-c3ccccc3)n2C2CC2)cc1OC",
    "group.label": 0
  },
  {
    "compound": "N#Cc1c(-c2ccccc2)nc(SCC2CO2)nc1N1CCOCC1 (stereo not drawn)",
    "group.label": 0
  }
]

Q: Could you please tell me the result logged for `CCN1CCN(c2ccc(Nc3cc(-c4cccnc4Nc4c(Cl)c(OC)cc(OC)c4Cl)ncn3)cc2)CC1` in this assay?
Result: 0

Q: Could you please tell me the result logged for `C=C(C)[C@@H]1CC[C@]2(C(=O)NCC(=O)O)CC[C@]3(C)[C@H](CC[C@@H]4[C@@]5(C)Cc6c([nH]c7ccccc67)C(C)(C)[C@@H]5CC[C@]43C)[C@@H]12` in this assay?
Result: 0

Q: Could you please tell me the result logged for `Cc1c(C(=O)O[C@H]2[C@@H]3[C@H](C)CC[C@H]3[C@]3(C)O[C@@]2(C2CCCCC2)C[C@H]3OC(=O)CO)ccc2ccccc12` in this assay?
Result: 1

Q: Could you please tell me the result logged for CCN(CC)CC(O)CNc1c2ccc(Cl)cc2nc2ccc(OC)cc12 (stereo not drawn) in this assay?
Result: 1

----------
- Test system: MDA-MB-435 melanoma
- protocol.details: NCI-60 one-dose screen, 48 h (100 = growth as untreated, 0 = no growth, -100 = all killed)
- test.parameters: 10 µM unless noted
The panel holds about 83,000 compounds, 20% with a hit somewhere; the sample as a whole holds those more often. The source made the active and inactive calls. The calls were made as follows: active = growth percent below 10; inactive = the rest.
growth values for the molecules below.

Worked cases, growth given:
[
  {
    "molecule": "N#Cc1c(-c2ccccc2)nc(SCC2CO2)nc1N1CCOCC1 (stereo not given)",
    "growth": "69.3% (inactive)"
  },
  {
    "molecule": "O=c1[nH]c(=O)n(C2CC(O)C(CO)O2)cc1CO (stereo not given)",
    "growth": "99% (inactive)"
  },
  {
    "molecule": "CCN(CC)CCOC(=O)Nc1ccccc1Cl",
    "growth": "108% (inactive)"
  },
  {
    "molecule": "COC1=CC(c2ccc[nH]2)=N/C1=C\\c1[nH]c(C)c(C(=O)OCCn2cc(CCC[C@@H]3Cc4cc(O)ccc4C4CC[C@]5(C)[C@@H](O)CC[C@H]5C43)nn2)c1C (stereo not given in full)",
    "growth": "80% (inactive)"
  }
]

Consider now this further molecule.
Lab note: `COc1ccc(-c2nc3sccn3c2/C=C/C(=O)c2c[nH]c3ccccc23)cc1` gave growth of 88.9% (inactive)

----------
- Tested on: SK-MEL-2 melanoma
- protocol.details: NCI-60 one-dose screen, 48 h (100 = growth as untreated, 0 = no growth, -100 = all killed)
- test.parameters: 10 µM unless noted
- Protocol: Growth inhibition of the SK-MEL-2 human tumor cell line is measured as a screen for anti-cancer activity. Cells are grown in 96 well plates and exposed to the test compound for 48 hours. Compounds are tested at a single concentration, which is 10^-5 M for most compounds. The reported endpoint is percent growth (GI% or GIPRCNT), where numbers from 0 - 100% represent growth inhibition, and numbers from -100% - 0 represent cell death. For example, a value of 40 represents 60% growth inhibition. […]
The panel holds about 83,000 compounds, 20% with a hit somewhere; the sample as a whole holds those more often.
measurement.kind: growth (%)
Quick note: give the figure in %, leave out the unit.

Worked cases, growth given:
[
  {
    "compound": "COc1cc(C2CC(=O)Nc3n[nH]c(-c4ccccc4)c32)cc(OC)c1OC (configuration not stated)",
    "growth / %": 59.8
  },
  {
    "compound": "NS(=O)(=O)Oc1ccc(-c2sc3cc(O)ccc3c2C(=O)c2ccc(OCCN3CCCCC3)cc2)cc1",
    "growth / %": 84
  },
  {
    "compound": "NC(N)=N/N=C(/c1ccccc1)c1ccc(N)cc1",
    "growth / %": 112
  },
  {
    "compound": "CCCCN(CCCC)CCCn1c(=O)c2sc3ncccc3c2n2nnc(-c3ccccc3)c12",
    "growth / %": 107
  },
  {
    "compound": "C/C(Cc1ccc(Cl)cc1)=C(/c1ccc(Cl)cc1)c1ccc(OCCN(C)C)cc1",
    "growth / %": 109
  },
  {
    "compound": "CCCCCCCSc1ccc(C(=O)O)cc1",
    "growth / %": 103
  },
  {
    "compound": "Cc1c(Cl)cccc1NS(=O)(=O)c1ccccc1",
    "growth / %": 132
  },
  {
    "compound": "CN(C)c1ccc(-c2cc(-c3ccc(Nc4nc(Nc5ccccc5)nc(Nc5ccc(Cl)cc5)n4)cc3)nc(N)n2)cc1",
    "growth / %": 47.2
  },
  {
    "compound": "COc1ccc(/C(C)=C(\\c2ccc(Cl)cc2)c2ccc(OCCCN(C)C)cc2)cc1F",
    "growth / %": 97.2
  },
  {
    "compound": "CCN(CC)c1ccc(Nc2ccc(CC(=O)c3ccccc3)cc2)cc1",
    "growth / %": 81.7
  }
]

Lab note: CCCCC1COc2cccc3c(SCC(=O)N(C)c4cccc(Cl)c4)cc[n+]1c23 (configuration not stated) gave growth of 105

Lab note: `CN=C1C=CC(=C(c2ccc(N(C)C)cc2)c2ccc(N(C)C)cc2)C=C1` gave growth of -52.4

Lab note: `CNC1(C#N)CCN(Cc2ccccc2)CC1` gave growth of 93.2

----------
growth values for the molecules below.
- Tested on: M14 melanoma
- protocol.details: NCI-60 one-dose screen, 48 h (100 = growth as untreated, 0 = no growth, -100 = all killed)
- test.parameters: 10 µM unless noted
The panel holds about 83,000 compounds, 20% with a hit somewhere; the sample as a whole holds those more often.
Quick note: give the figure in %, leave out the unit.

Worked cases, growth given:
[
  {
    "molecule": "NC(N)=N/N=C(/c1ccccc1)c1ccccc1F",
    "unit.string": "%",
    "growth": -45.4
  },
  {
    "molecule": "CCC(C)NCc1ccccc1 (configuration not stated)",
    "unit.string": "%",
    "growth": 96.9
  },
  {
    "molecule": "CS(=O)(=O)c1ccc(-c2[nH]c3ccc(F)cc3c2/C=N/O)cc1",
    "unit.string": "%",
    "growth": 96.6
  },
  {
    "molecule": "COc1ccccc1C(=O)NC(=S)Nc1ccc(-c2nc3ccccc3[nH]2)cc1",
    "unit.string": "%",
    "growth": 54.3
  },
  {
    "molecule": "CCN(CC)CCOC(=O)Nc1ccccc1Cl",
    "unit.string": "%",
    "growth": 86.1
  }
]

Lab note: `CCCCCCNCc1cc(C(C)(C)C)cc(CNCCCCCC)c1O` gave growth of -88.6

Lab note: `CCOC(=O)c1ccc(NC(=O)CCCN(CC)CC)cc1` gave growth of 91.3

----------
growth values for the molecules below.
- System: PC-3 prostate
- protocol.details: NCI-60 one-dose screen, 48 h (100 = growth as untreated, 0 = no growth, -100 = all killed)
- test.parameters: 10 µM unless noted
The panel holds about 83,000 compounds, 20% with a hit somewhere; the sample as a whole holds those more often.
Quick note: give the figure in %, leave out the unit.

Worked cases, growth given:
[
  {
    "molecule": "CN(CCC(=O)/C(=C\\c1ccccc1)c1ccc(Cl)cc1)Cc1ccccc1",
    "unit.string": "%",
    "growth": 45
  },
  {
    "molecule": "COc1c(C)cnc(CSc2nc(-c3ccc(C)cc3)cn2-c2ccc(Cl)cc2)c1C",
    "unit.string": "%",
    "growth": 81.7
  },
  {
    "molecule": "CCCc1cc(=O)oc2c3c(c4c(c12)OC(C)(C)C=C4)O[C@@H](C)[C@H](C)C3=O",
    "unit.string": "%",
    "growth": 40.7
  },
  {
    "molecule": "COc1cc(NC(=O)c2cc(O)c(CC=C(C)C)c(O)c2)cc2c1O[C@]1(C)CC[C@@H](O)C(C)(C)[C@H]1C2",
    "unit.string": "%",
    "growth": 21.5
  },
  {
    "molecule": "CC12CC(C#N)CCC1O2 (stereo unspecified)",
    "unit.string": "%",
    "growth": 101
  }
]

Lab note: `CC(C)(C)Nc1c(-c2c3ccccc3cc3ccccc23)nc2ccccn12` gave growth of 37.9

Values compiled from PubChem BioAssay (NCI).
